system: HOP-62 NSCLC; assay: NCI tumour cell line growth inhibition, 48 h
Measure: GI50

>  <Compound>
C#CCN(CCCOc1ccc(Cl)cc1Cl)CCCSC(=O)CCCCCN1/C(=C\C=C2/CCCC(/C=C/C3=[N+](CCCCCC(=O)[O-])c4ccccc4C3(C)C)=C2Cl)C(C)(C)c2ccccc21

>  <Measure>
GI50

>  <Experimental Value>
2100 nM

$$$$
>  <Compound>
Cn1cc(C2=C(c3cccc([N+](=O)[O-])c3)C(=O)NC2=O)c2ccccc21

>  <Measure>
GI50

>  <Experimental Value>
7470 nM

$$$$
>  <Compound>
COc1cc2c(cc1OC)C(Sc1ccc(Cl)cc1)c1c(nc(N)c(C#N)c1N)O2 (stereo not given)

>  <Measure>
GI50

>  <Experimental Value>
1530 nM

$$$$
>  <Compound>
COc1ccc(C2CC(c3cccc(Nc4ccncc4)c3)=NN2c2ccccc2)cc1 (stereo not given)

>  <Measure>
GI50

>  <Experimental Value>
2250 nM

$$$$

Turning now to a further record.
Prompt line: Param item = C=C(c1ccc(C(=O)NCCCn2ccnc2)cc1)c1cc2c(cc1C)C(C)(C)CCC2(C)C ; retrieve measured GI50.
Response line: 2460 nM

====

system: PC-3 prostate; assay: NCI tumour cell line growth inhibition, 48 h; in the data active = GI50 below about 0.43 µM; inactive = the rest
Could you please pick one outcome from this set? active, inactive

>  <Compound>
COc1ccccc1CNCCCN1C(=O)c2ccc3c4c(ccc(c24)C1=O)C(=O)N(CCCNCCCCN)C3=O

>  <Group Label>
active

$$$$
>  <Compound>
O=C(NCCNC1=CC(=O)c2nc3ccccc3c3ccnc1c23)c1cnccn1

>  <Group Label>
inactive

$$$$
>  <Compound>
COC(=O)c1sc(=S)c2sc(C(=O)OC)c(C(=O)OC)c2c1C(=O)OC

>  <Group Label>
inactive

$$$$
>  <Compound>
CN(C)CC(=O)N1CCc2c([nH]c3ccccc23)C1c1cccnc1 (stereo unspecified)

>  <Group Label>
inactive

$$$$
>  <Compound>
O=C(/C=C/c1ccccn1)c1ccccc1

>  <Group Label>
inactive

$$$$

Prompt line: Hi, do you know how COc1ccc(-c2nn(-c3cccc(Cl)c3)cc2-c2c(C#N)c(=O)n3[nH]c(-c4ccc(C)o4)nc3c2C#N)cc1 came out in this test?
Response line: inactive

====

Readings of GI50 for the listed molecules
system: SK-MEL-5 melanoma; experiment: NCI tumour cell line growth inhibition, 48 h

>  <Molecule>
Cn1cc(C2=C(c3cccc([N+](=O)[O-])c3)C(=O)NC2=O)c2ccccc21

>  <GI50>
3630 nM

$$$$
>  <Molecule>
Nc1nc2c([nH]1)c1[nH]c3ccccc3c1c1[nH]c3ccccc3c21

>  <GI50>
14000 nM

$$$$
>  <Molecule>
COc1ccc([C@H]2c3[nH]c4ccccc4c3C[C@H]3C(=O)N(CCCCCCC(=O)NO)CC(=O)N23)cc1

>  <GI50>
1890 nM

$$$$
>  <Molecule>
COc1ccccc1CNCCCN1C(=O)c2ccc3c4c(ccc(c24)C1=O)C(=O)N(CCCNCCCCN)C3=O

>  <GI50>
164 nM

$$$$
>  <Molecule>
Oc1ccccc1/C=N/c1nc(-c2ccccc2)cs1

>  <GI50>
47600 nM

$$$$
>  <Molecule>
CNc1ccc(CSc2ccc(C)cc2)cc1

>  <GI50>
13800 nM

$$$$

Prompt line: Any idea what GI50 was measured for Cc1nc2sc(C(=O)Nc3cccc(Cl)c3)c(N)c2cc1C(O)c1ccccc1 (configuration not stated) ?
Response line: 622 nM

Prompt line: Reported GI50, molecule OCCN1CCCN(CCCN2c3ccccc3Sc3ccc(C(F)(F)F)cc32)CC1 : ____
Response line: 1670 nM

Prompt line: // lookup GI50 for Nc1c([N+](=O)[O-])ncn1C1OC(CO)C(O)C1O (configuration not stated)
Response line: > 100000 nM

Prompt line: Look at this molecule and give its reported GI50. O=C(Nc1ccc(-n2cc(-c3ccncc3)c(-c3ccc(Cl)c(O)c3)n2)cc1)c1ccc(Cl)c(Cl)c1
Response line: 1150 nM

Prompt line: Which GI50 is reported for this molecule? C=C(c1ccc(C(=O)NCCCn2ccnc2)cc1)c1cc2c(cc1C)C(C)(C)CCC2(C)C
Response line: 1140 nM

Prompt line: Report GI50 for Cc1ncc([N+](=O)[O-])n1CCOc1ccc(C(=O)/C=C/c2ccc(C(F)(F)F)cc2)cc1 please.
Response line: 6100 nM
